The measured values listed here are drawn from patent US20230109839A1.

target: human Nav1.1 (Homo sapiens, UniProt P35498)
Construct: host or cells: HEK293
protocol.description: Amplification of Nav1.1-derived voltage-gated sodium current (Nav1.1 current), automated patch clamp (Test 1)
Format: cell-based
assay.conditions: Concentration for evaluation 1 μM; HEK293 cell line stably expressing human Nav1.1
Overview of recorded Nav1.1 current amplification rate (%) for various compounds
Answer with a number only, understood to be in %.

Past entries and their recorded results:
> print(dat)
                                   compound  measured
1  CC1CC(N(C)c2cnc3cnn(CC(=O)Nc4ccn5ncnc5c4)c3n2)C1 (centres unmarked)        76
2  CN(c1cnc2cnn(CC(=O)Nc3ccc4cnncc4c3)c2n1)C1CC1        76
3  O=C(Cn1ncc2ncc(C3=CCC4(CC3)CC4)nc21)Nc1ccc2ncnn2c1        70

### Prompt Output measured Nav1.1 current amplification rate (%) for this item: Cc1cc(NC(=O)Cn2ncc3ncc(N(C)C4CC4)nc32)cc2ncnn12
### Response 109
